tested on: 786-0; assay: NCI tumour cell line growth inhibition, 48 h
Activity calls are given as the source filed them. No stated cut-off is given here; in the data, active = GI50 up to about 1.1 µM and inactive = higher.
In this exercise, the only acceptable responses are active, inactive

>  <compound>
CCON=C1C(C)(C)C(C)(C)C(C)(C)C1(C)C

>  <classAssignment>
inactive

$$$$
>  <compound>
O=C1CSC(c2cccc(Cl)c2)N1c1c(O)c(Cl)cc(Br)c1Cl (stereo not given)

>  <classAssignment>
inactive

$$$$
>  <compound>
COc1ccc(C(=C(C#N)C#N)c2ccc(OC)cc2)cc1

>  <classAssignment>
inactive

$$$$
>  <compound>
CN(C)c1ccc(C2CC(=O)C(C#N)=C(c3ccccc3)NN2C)cc1 (stereo not given)

>  <classAssignment>
inactive

$$$$
>  <compound>
CN1C=Cc2nccc3cc4c(c1c23)OCO4

>  <classAssignment>
inactive

$$$$

Query: Which outcome did this test record for the compound COC(=O)C1=C(O)C(C(=O)OC)[C@]2(O)[C@H](C(=O)OC)[C@H]1C[C@@H](c1ccc(OC)c(OC)c1)[C@H]2C(=O)OC (stereo not given in full) ?
Response: inactive

Query: Call for entry CC1=CCC23C(C1)OC(Br)(C=CC2(C)O)C3(C)C (stereo not given) :
Response: inactive

Query: # fetch the recorded call for COC(=O)c1cc2c(=O)n(C)c3ccccc3n2c1C(=O)OC here
Response: inactive

* * *

system: SNB-75; assay: NCI tumour cell line growth inhibition, 48 h
Activity calls are given as the source filed them. Cut-off read from the data, not from the text of the source: active = GI50 up to about 1.1 µM and inactive = higher.
Reported GI50 values for the following compounds.

>  <compound>
O=C=NCCCCCCN1C(=O)N2C(c3ccccc3)N(CCCCCCN=C=O)C(=O)N2C1c1ccccc1 (stereo not given)

>  <targetOfAssay>
SNB-75

>  <experimentalReadout>
GI50

>  <reportedResult>
> 100 µM (inactive)

$$$$

Query: Kindly state the measured GI50 obtained for COc1ccc(SCc2cc(OC)c(OC)c(OC)c2)cc1OC with SNB-75.
Response: 17.7 µM (inactive)

Query: GET /values?readout=GI50&system=SNB-75&item= COC(=O)NCCc1n[nH]c2c1C(=O)C=C(Nc1ccccc1)C2=O
Response: 57.3 µM (inactive)

Query: Kindly state the measured GI50 obtained for COC(=O)/C(=N/NC(N)=O)C(C(=O)C(=O)Nc1ccc(C)cc1)c1nc2ccc(C(=O)c3ccccc3)cc2nc1O (stereo not given) with SNB-75.
Response: 39.7 µM (inactive)

Query: Entry Cc1cc(C)c([O-])c(-[n+]2c(-c3ccccc3)cc(-c3ccccc3)cc2-c2ccccc2)c1 , system SNB-75: what GI50 was measured?
Response: 6.18 µM (inactive)

* * *

test system: SNB-75; assay: NCI tumour cell line growth inhibition, 48 h
The source made the active and inactive calls. Rule as the data show it: active = GI50 up to about 1.1 µM and inactive = higher.
experimentalReadout: GI50

For orientation, consider the following solved cases.
>  <compound>
CN(C)CCNC(=O)c1cc2ccccc2c2nc3ccccc3nc12

>  <experimentalReadout>
GI50

>  <reportedResult>
1.19 µM (inactive)

$$$$
>  <compound>
COc1ccc(O)c(/C=N\Nc2ccccc2)c1

>  <experimentalReadout>
GI50

>  <reportedResult>
49.9 µM (inactive)

$$$$

Now for another entry.
Query: GET /values?readout=GI50&item= CC(=O)OC1CC2CCN3C(=O)c4cc5c(cc4[C@H](C1OC(C)=O)C23)OCO5 (some centres not stated)
Response: > 100 µM (inactive)

Entry source: ChEMBL document CHEMBL1201862
